From: patent US20100190813A1

PROPERTY_LABEL: melting point (°C)
One number for each entry, in °C.

- COC1Cc2sccc2C2(CCN(CCc3ccccc3)CC2)O1 (centres unmarked) [Example 4]: 94
- c1cc2c(s1)CCOC21CCN(CC2CCCCC2)CC1 [Example 26]: 77
- COC1Cc2sccc2C2(CCN(Cc3ccccc3)CC2)O1 (centres unmarked) [Example 3]: 78
- COC1Cc2sc(Cl)cc2C2(CCN(Cc3ccccc3)CC2)O1 (centres unmarked) [Example 38]: 117

Per the records, this molecule ( COC1Cc2sc(C(OC)OC)cc2C2(CCN(Cc3ccccc3)CC2)O1 (centres unmarked) [Example 37] ) has melting point equal to 71
